B1: tRNA (parent)
chain: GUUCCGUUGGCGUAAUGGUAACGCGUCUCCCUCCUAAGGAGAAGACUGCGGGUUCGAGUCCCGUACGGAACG

variants of: B1; assay: yeast fitness relative to wild type (ratio to wild type); higher = fitter; tRNA-Arg(CCU), competitive growth, 37 C, YPD
Variants at the floor of the assay were thinned out.
MEASUREMENT LABEL: yeast fitness
The reply should be a number, written without any unit.

C11A U32C C49U : 0.606

For the variant shown here, U2G C27U A45C , give the reported yeast fitness.
0.657

Please do the same for G6A A15C C27A A43G as well.
0.592

Also C5U U16G ?
0.809

// same read-out, input: U3A G9C C46G
0.533

// repeat for C29A G50C and report
0.553

Param item: C30A C62U
0.886

// repeat for C11G C24U G68C and report
0.523

Further, for G17A A57G ?
0.906

What about C11U C34G A69C ?
0.535
